CC50 values for the molecules below.
Assay: Cytotoxicity against african green monkey Vero cells
Type: cell-based
Conditions: chlorocebus sabaeus
quantityName: CC50

1. Cn1c(-c2ccc(NC(=O)CN3CCCC3)cc2)nc2cc(C(F)(F)F)ccc21
> 100 µM
2. Cn1c(-c2ccc(NC(=O)CN3CCOCC3)cc2)nc2cc(C(F)(F)F)ccc21
> 100 µM
3. COc1ccc(-c2nc3cc(Cl)c(Cl)cc3[nH]2)c(N)c1
75 µM
4. Nc1ccc(-c2nc3cc(C(F)(F)F)ccc3n2C2CCCCC2)cc1
> 100 µM
5. COc1ccc(-c2nc3cc(C(C)=O)ccc3[nH]2)c(OC)c1
> 100 µM
6. Fc1cccc(F)c1-c1nc2cc(Cl)c(Cl)cc2[nH]1
> 100 µM
7. COc1c(C)c2c(c(O)c1C/C=C(\C)CCC(=O)O)C(=O)OC2 [MYCOPHENOLIC ACID]
≥ 13 µM
8. CC(=O)Nc1ccc(-c2nc3ccccc3[nH]2)cc1
> 100 µM
9. Cn1c(-c2ccc(NC(=O)CN3CCSCC3)cc2)nc2cc(C(F)(F)F)ccc21
> 100 µM
10. O=C(CNC12CC3CC(CC(C3)C1)C2)Nc1ccc(-c2nc3cc(C(F)(F)F)ccc3[nH]2)cc1
45 µM
11. Cn1c(-c2ccc(NC(=O)CN3CCCCC3)cc2)nc2cc(C(F)(F)F)ccc21
> 100 µM
12. COc1ccc(-c2nc3cc(C(C)=O)ccc3[nH]2)c(OC)c1OC
> 100 µM

Just for reference, ChEMBL document CHEMBL1156237 is where these values come from.
